Tested on: Antibiotic-resistant staphylococcal, enterococcal, enterobacterial or acinetobacter isolates
Test: Broth micro-dilution assay in clinical patient isolates, compound in combination with tetracyclines
Format: cell-based
Conditions: 4 μg/ml tetracyclines and 10 μg/ml compound; OD610 16 to 20 hours after inoculation, normalized to DMSO control (100%)
Procedure: Microdilution Assay in Clinical Patient Isolates Broth Micro-Dilution Assay in Cation-Adjusted Mueller-Hinton (CA-MHB) […] Antibiotic-resistant staphylococcal, enterococcal, enterobacterial or acinetobacter isolates were scraped from fresh Orientation Agar plates, suspended in saline solution with the turbidity adjusted to OD610 of 0.1 (corresponds to 0.5 McFarland scale). […] Plates were then visually analyzed, scanned and subsequently the OD610 was determined. […]
The threshold is inclusive: Growth (% rel. to DMSO) of exactly 30% counts as Criterion met; values below receive Criterion not met.

1) O=C(Nc1ccccc1)C1CCc2c(O)ccc(O)c2C1 (stereo not drawn) ... Criterion met
2) O=C(Nc1ccccc1Oc1ccc(Cl)cc1)C1CCc2c(O)ccc(O)c2C1 (stereo not drawn) ... Criterion not met
3) O=C(c1cc(O)ccc1O)N1CCN(c2ccccc2)CC1 ... Criterion met
4) O=C(NCc1cc(O)ccc1O)c1ccccc1 [Example 1, N-[(2,5-dihydroxyphenyl)methyl]benzamide] ... Criterion met
5) CC(C)CNC(=O)C1CCc2c(O)ccc(O)c2C1 (stereo not drawn) ... Criterion not met
6) O=C(NCc1cc(F)ccc1F)C1CCc2c(O)ccc(O)c2C1 (stereo not drawn) ... Criterion not met
